TARGET_OF_ASSAY: von Willebrand factor (VWF) (Homo sapiens, UniProt P04275 P04275:764-2813)
TEST_PROTOCOL: filter; Bmax 75%; 2 mM CaCl2, 37 C
EXPERIMENTAL_CONDITIONS: tags: factor VIII free human purified VWF, Haematologic Technologies Inc; label: 5'-32P
ENDPOINT_NAME: Kd (nM)
Express the result in nM but write the number alone.

Input ACGAACUGCCCUCGUAUUAUUUCGACGCACAGACGU (ssRNA, 2'-F C9,C10,C11,C26,G27,C28; rest 2'-OMe; 3' idT) [T89 vrt7] . Output Kd: 38.5
